Measured abundance fitness, listed per entry.
B1: Histone-lysine N-methyltransferase SETD2, residues 2382 to 2430; numbered along this chain, Q9BYW2 (parent)
chain: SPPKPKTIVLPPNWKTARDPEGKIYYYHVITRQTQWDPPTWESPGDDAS

Variants of: B1
method_notes: abundance fitness (aPCA) (normalised: wild type 0, dead -1); higher = more abundant; growth selection in yeast, the domain comes from the species named
experimental_parameters: Homo sapiens
Just the number, please, no unit attached.

# count of solved cases: 5
- sequence_input: "SPPKPKTIVLPPNWKTARDPEGKIYYYHVITRQTQWDPPRWESPGDDAS [T40R]"
  readout_number: -0.019
- sequence_input: "SPPKPKTIVLPPNWKTARDPLGKIYYYHVITRQTQWDPPTWESPGDDAS [E21L]"
  readout_number: -0.487
- sequence_input: "SIPKPKTIVLPPNWKTARDPEGKIYYYHVITRQTQWDPPTWESPGDDAS [P2I]"
  readout_number: 0.712
- sequence_input: "SPPKPKTIVLPPNWKTARDPEGKIYYYHVITRQTAWDPPTWESPGDDAS [Q35A]"
  readout_number: -0.155
- sequence_input: "SPPKPKTIVLPPNWKTARDPEGKIFYYHVITRQTQWDPPTWESPGDDAS [Y25F]"
  readout_number: -0.227

Problem: Fill in the blank: the reported abundance fitness of SPPKPKTIVLPPNWKTARDPEGKIWYYHVITRQTQWDPPTWESPGDDAS [Y25W] is ____.
Solution: -0.907

Problem: Fill in the blank: the reported abundance fitness of SPPKPKTIVLPPNWKTARDPEGKIYYYHVITRQTQWCPPTWESPGDDAS [D37C] is ____.
Solution: -0.07

Problem: Fill in the blank: the reported abundance fitness of SPPKPKTIVLPPNWKTARDPEGKIYYYHVITRQTQWDPPTWESSGDDAS [P44S] is ____.
Solution: -0.166
